tested on: bovine femoral artery; assay: relaxation of isolated bovine femoral artery rings contracted with norepinephrine; settings: Bos taurus; norepinephrine-contracted, intact endothelium; FIG. 2; read-out: apparent IC50 (relaxation)
Assay Metric: IC50

>  <Smiles Text>
C[C@H](CSN=O)C(=O)N1CCC[C@H]1C(=O)O

>  <System Name>
bovine femoral artery

>  <Value Reported>
~1 µM

$$$$

Reference source for all entries: patent US5536723A
